These entries and their values trace back to patent US10906905B2.

Entries with reported IC50 on UniProt P36897
Sequence (P36897 34-503): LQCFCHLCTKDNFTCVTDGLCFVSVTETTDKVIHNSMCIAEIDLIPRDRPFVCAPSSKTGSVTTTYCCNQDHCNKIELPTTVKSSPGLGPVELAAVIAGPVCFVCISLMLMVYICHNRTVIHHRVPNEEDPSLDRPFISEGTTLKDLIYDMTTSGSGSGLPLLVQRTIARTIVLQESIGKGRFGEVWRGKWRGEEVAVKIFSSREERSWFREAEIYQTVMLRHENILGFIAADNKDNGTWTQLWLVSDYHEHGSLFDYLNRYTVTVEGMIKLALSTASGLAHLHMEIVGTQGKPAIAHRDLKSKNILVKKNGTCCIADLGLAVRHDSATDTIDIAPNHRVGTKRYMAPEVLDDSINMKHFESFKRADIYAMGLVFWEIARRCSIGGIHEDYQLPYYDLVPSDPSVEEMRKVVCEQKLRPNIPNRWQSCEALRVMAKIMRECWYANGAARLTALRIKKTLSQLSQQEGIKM
State just the number; it will be interpreted in nM.

Give the measured IC50 of Cc1cccc(-c2nc3n(c2-c2ccnc(-c4ccc(C(=O)NC5CCOCC5)cc4)c2)C2CCC3C2)n1 (stereo not drawn) [Example 17] . 38

Now the compound Cc1cccc(-c2nn3c(c2-c2ccc4ncnn4c2)C2CCC3CC2)n1 [Example 38] 9

Now the compound Cc1cccc(-c2nc3n(c2-c2cc4cnccc4s2)C2CCC3C2)n1 (stereo not drawn) [Example 10] 25

Now the compound Cc1cccc(-c2nc3n(c2-c2ccnc(-c4ccc(S(N)(=O)=O)cc4)c2)[C@H]2CC[C@@H]3C2)n1 [Example 13-1] 11

Now the compound Cn1cc(-c2cc(-c3c(-c4ccc(F)cn4)nc4n3[C@H]3CC[C@@H]4C3)ccn2)cn1 [Example 40-1] 10

Now the compound Cc1cccc(-c2nc3n(c2-c2ccc4nccc(C(N)=O)c4c2)[C@H]2CC[C@@H]3C2)n1 [Example 1-1] 9

Now the compound Cc1cccc(-c2nc3n(c2-c2ccnc(NC[C@H](C)O)c2)[C@H]2CC[C@@H]3C2)n1 [Example 18-1] 80

Now the compound Cc1cccc(-c2nc3n(c2-c2ccc4nccnc4c2)C2CCC3C2)n1 (stereo not drawn) [Example 6] 26

Now the compound Cc1cccc(-c2nc3n(c2-c2ccnc(Nc4ccc(S(N)(=O)=O)cc4)c2)C2CCC3C2)n1 (stereo not drawn) [Example 14] 31

Now the compound NC(=O)c1nnc2cc(-c3c(-c4ccccn4)nc4n3[C@H]3CC[C@@H]4C3)ccn12 [Example 47-1] 39

Now the compound Cc1cccc(-c2nc3n(c2-c2ccc4nnc(C(N)=O)n4c2)[C@@H]2CC[C@H]3C2)n1 [Example 2-2] 3

Now the compound Cc1cccc(-c2nc3n(c2-c2ccc4ncnn4c2)C2CCC3C2)n1 (stereo not drawn) [Example 11] 16

Now the compound Cc1cccc(-c2nc3n(c2-c2ccnc(NC(=O)OC(C)(C)C)c2)C2CCC3C2)n1 (stereo not drawn) [Example 31] 55

Now the compound Cc1cccc(-c2nc3n(c2-c2ccnc(-c4cnn(S(C)(=O)=O)c4)c2)C2CCC3C2)n1 (stereo not drawn) [Example 43] 21

Now the compound Cc1cccc(-c2nc3n(c2-c2ccnc(NCCO)c2)[C@H]2CC[C@@H]3C2)n1 [Example 5-1] 46

Now the compound Cc1cccc(-c2nc3n(c2-c2ccnc4ccc(C(N)=O)cc24)C2CCC3C2)n1 (stereo not drawn) [Example 29] 85

Now the compound CS(=O)(=O)c1ccc(-c2cc(-c3c(-c4ccccn4)nc4n3[C@H]3CC[C@@H]4C3)ccn2)cc1 [Example 46-1] 34

Now the compound Cc1cccc(-c2nc3n(c2-c2ccnc(NCCN4CCOCC4)c2)[C@H]2CC[C@@H]3C2)n1 [Example 16-1] 77

Now the compound NC(=O)c1ccnc2ccc(-c3c(-c4ccccn4)nc4n3[C@H]3CC[C@@H]4C3)cc12 [Example 45-1] 29

Now the compound NC(=O)c1nnc2ccc(-c3c(-c4ccc(F)cn4)nc4n3C3CCC4C3)cn12 (stereo not drawn) [Example 9] 43

Now the compound Cc1cccc(-c2nc3n(c2-c2ccnc(-c4cnn(C)c4)c2)C2CCC3C2)n1 (stereo not drawn) [Example 12] 9

Now the compound Cc1cccc(-c2nc3n(c2-c2ccc4ncc(OCCO)nc4c2)C2CCC3C2)n1 (stereo not drawn) [Example 7] 20

Now the compound Cc1cccc(-c2nc3n(c2-c2ccnc(N)c2)C2CCC3C2)n1 (stereo not drawn) [Example 32] 9

Now the compound Cc1cccc(-c2nc3n(c2-c2ccnc(-c4ccc(C(N)=O)cc4)c2)C2CCC3C2)n1 (stereo not drawn) [Example 4] 29

Now the compound Cc1cccc(-c2nn3c(c2-c2ccnc4ccc(C(N)=O)cc24)C2CCC3C2)n1 (stereo not drawn) [Example 35] 12

Now the compound Cc1cccc(-c2nn3c(c2-c2ccc4nccc(C(N)=O)c4c2)C2CCC3CC2)n1 [Example 36] 21

Now the compound Cc1cccc(-c2nc3n(c2-c2ccnc(NCCO)c2)C2CCC3C2)n1 (stereo not drawn) [Example 5] 59

Now the compound Cc1cccc(-c2nc3n(c2-c2ccnc(-c4ccc(S(C)(=O)=O)cc4)c2)[C@H]2CC[C@@H]3C2)n1 [Example 3-1] 4

Now the compound Cc1cccc(-c2nc3n(c2-c2ccc4nccc(C(N)=O)c4c2)C2CCC3C2)n1 (stereo not drawn) [Example 1] 14

Now the compound NC(=O)c1ccc(-c2cc(-c3c(-c4ccc(F)cn4)nc4n3[C@H]3CC[C@@H]4C3)ccn2)cc1 [Example 41-1] 28
